TEST SYSTEM: synthetic Aβ 1-40 (Homo sapiens, UniProt P05067)
Construct: using synthetic Aβ 1-40 in 2.7 nM of [^3H]PIB
Sequence (P05067 672-711 limits assumed): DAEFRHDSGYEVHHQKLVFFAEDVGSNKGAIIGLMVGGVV
MEASUREMENT NOTES: Competition binding assay ([3H]PIB as radioligand)
MEASUREMENT SETUP: [3H]PIB 2.7 nM as radioligand, synthetic Aβ 1-40, phosphate buffer pH 7.5, 30 min room temperature; read-out: IC50 in the competion binding assay
READOUT KIND: IC50 (nM)

compound=COC(=O)c1ccc(-c2cc3cc(OC)ccc3[nH]2)nc1 unit_tag=nM recorded_measurement=141
compound=CC(C)(C)OC(=O)n1c(-c2ccc(C(N)=O)nc2)cc2cc(F)ccc21 unit_tag=nM recorded_measurement=5370
compound=CNc1ccc(-c2cc3cc(O)ccc3[nH]2)cn1 unit_tag=nM recorded_measurement=736
compound="NC(=O)c1ccc(-c2cc3ccccc3[nH]2)cn1 [5-(1H-indol-2-yl)pyridine-2-carboxamide, 5-(1H-Indol-2-yl)pyridine-2-carboxamide]" unit_tag=nM recorded_measurement=143
compound=COC(=O)c1ccc(-c2cc3cc(O)ccc3[nH]2)nc1 unit_tag=nM recorded_measurement=140
compound=CNc1ccc(-c2cc3cc(OC)ccc3[nH]2)cn1 unit_tag=nM recorded_measurement=201
compound=CNc1ccc(-c2cc3cc(F)ccc3[nH]2)cn1 unit_tag=nM recorded_measurement=152
